Entries with their measured pIC50, system PIK3CD (Human) (UniProt O00329):
pIC50: −log10 of the molar value.

Returns the measured pIC50 for the input compound. Input: C[C@H](Nc1nc(N)nc(N)c1C#N)c1nc2c(F)ccc(F)c2c(=O)n1-c1ccccc1
≥ 9.00

Which value of pIC50 has been reported for CC[C@H](Nc1nc(N)nc(N)c1C#N)c1nc2cccc(Cl)c2c(=O)n1-c1cc(F)cc(F)c1 in the records?
8.00 to 9.00

Look up pIC50 for this compound: C[C@H](Nc1nc(N)nc(N)c1C#N)c1nc2cccc(S(C)(=O)=O)c2c(=O)n1-c1cccc(F)c1
8.00 to 9.00

Report pIC50 for CC(C)[C@H](Nc1nc(N)nc(N)c1C#N)c1nc2cccc(Cl)c2c(=O)n1-c1ccccc1 please.
≥ 9.00

###

Values of pIC50 reported for PIK3CD (Human) (UniProt O00329) appear below.
pIC50: −log10 of the molar value.

In the examples that follow, each entry is paired with its recorded pIC50.
[[record]]
structure_notation = "CC[C@H](Nc1nc(N)nc(N)c1C#N)c1nc2cccc(F)c2c(=O)n1-c1cc(F)cc(F)c1"
experimental_value = "8.00 to 9.00"

[[record]]
structure_notation = "C[C@H](Nc1nc(N)nc(N)c1C#N)c1nc2c(C#N)cccc2c(=O)n1-c1cc(F)cc(F)c1"
experimental_value = "8.00 to 9.00"

[[record]]
structure_notation = "C[C@H](Nc1nc(N)nc(N)c1Cl)c1nc2c(F)ccc(Cl)c2c(=O)n1-c1ccccc1"
experimental_value = "8.00 to 9.00"

[[record]]
structure_notation = "C[C@H](Nc1nc(N)nc(N)c1C#N)c1nc2c(C#N)cc(F)cc2c(=O)n1-c1cccc(F)c1"
experimental_value = "8.00 to 9.00"

[[record]]
structure_notation = "COc1cc(-n2c([C@H](C)Nc3nc(N)nc(N)c3C#N)nc3cccc(Cl)c3c2=O)ccc1C"
experimental_value = "7.30 to 8.00"


Could you share what pIC50 was measured for Cc1ccc(F)c2nc([C@H](C)Nc3nc(N)nc(N)c3C#N)n(-c3cccc(C#N)c3)c(=O)c12 , tested on PIK3CD (Human) (UniProt O00329)?
≥ 9.00

Notebook entry, PIK3CD (Human) (UniProt O00329) assay: pIC50 of Cc1cccc2nc([C@H](C)Nc3nc(N)nc(N)c3C#N)n(-c3cc(F)cc(F)c3)c(=O)c12 = ?
≥ 9.00

API: value(readout=pIC50, system=PIK3CD (Human) (UniProt O00329)) for record C[C@H](Nc1nc(N)nc(N)c1C#N)c1nc2ccc(F)cc2c(=O)n1-c1ccccc1
8.00 to 9.00

API: value(readout= pIC50, system= PIK3CD (Human) (UniProt O00329), query= C[C@H](Nc1nc(N)nc(N)c1C(N)=O)c1nc2cccc(Cl)c2c(=O)n1-c1cccc(C(F)F)c1 )
8.00 to 9.00

###

molecular target: PIK3CD (Human) (UniProt O00329)
Sequence (O00329 whole entry, looked up): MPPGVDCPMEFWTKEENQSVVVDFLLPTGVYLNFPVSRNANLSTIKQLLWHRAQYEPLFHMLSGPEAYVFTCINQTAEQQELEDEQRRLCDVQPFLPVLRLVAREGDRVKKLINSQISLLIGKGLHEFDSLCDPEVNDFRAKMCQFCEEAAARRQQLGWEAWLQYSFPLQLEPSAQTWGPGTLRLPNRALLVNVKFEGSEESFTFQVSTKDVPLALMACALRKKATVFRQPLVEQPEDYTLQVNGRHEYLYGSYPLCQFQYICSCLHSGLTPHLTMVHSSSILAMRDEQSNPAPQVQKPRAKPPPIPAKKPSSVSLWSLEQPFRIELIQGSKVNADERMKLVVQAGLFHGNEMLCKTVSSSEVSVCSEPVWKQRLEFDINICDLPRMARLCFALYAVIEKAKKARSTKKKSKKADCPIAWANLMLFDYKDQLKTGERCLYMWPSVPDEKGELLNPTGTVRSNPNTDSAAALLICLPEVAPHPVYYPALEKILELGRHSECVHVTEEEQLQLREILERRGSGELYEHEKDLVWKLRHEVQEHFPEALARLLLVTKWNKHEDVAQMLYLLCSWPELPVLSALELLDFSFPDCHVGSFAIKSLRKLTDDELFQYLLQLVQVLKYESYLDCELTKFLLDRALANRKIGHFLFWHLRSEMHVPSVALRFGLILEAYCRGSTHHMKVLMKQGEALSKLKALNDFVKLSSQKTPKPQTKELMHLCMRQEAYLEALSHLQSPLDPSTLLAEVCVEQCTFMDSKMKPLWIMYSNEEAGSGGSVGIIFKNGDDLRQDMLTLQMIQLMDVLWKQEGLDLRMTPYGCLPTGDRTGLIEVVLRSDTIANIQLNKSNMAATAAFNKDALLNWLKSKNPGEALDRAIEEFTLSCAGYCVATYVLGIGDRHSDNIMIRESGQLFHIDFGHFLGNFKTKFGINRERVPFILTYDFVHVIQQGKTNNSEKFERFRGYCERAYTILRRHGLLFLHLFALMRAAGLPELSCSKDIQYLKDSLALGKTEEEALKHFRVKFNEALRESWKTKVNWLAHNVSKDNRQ
pIC50: −log10 of the molar value.
# reported pIC50; entries follow

Sample records with pIC50:
[[record]]
structure_notation = "C[C@H](Nc1nc(N)nc(N)c1C#N)c1nc2cccc(Cl)c2c(=O)n1-c1cccc(C(F)F)c1"
experimental_value = "≥ 9.00"

[[record]]
structure_notation = "C[C@H](Nc1nc(N)nc(N)c1C#N)c1nc2cccc(Cl)c2c(=O)n1-c1cc(C(F)F)cc(C(F)F)c1"
experimental_value = "8.00 to 9.00"


Test system PIK3CD (Human) (UniProt O00329); read-out pIC50; what value for COc1cc(-n2c([C@H](C)Nc3nc(N)nc(N)c3C#N)nc3cccc(Cl)c3c2=O)ccc1F ?
8.00 to 9.00

Give the reported pIC50 for COc1cc(F)cc(-n2c([C@H](C)Nc3nc(N)nc(N)c3C#N)nc3cccc(Cl)c3c2=O)c1 (system: PIK3CD (Human) (UniProt O00329)).
8.00 to 9.00
